Entry source: ChEMBL document CHEMBL3217729

protocol-text: Solubility of the compound in phosphate buffered saline at pH 7.4 after 4 hrs by LC-MS/MS analysis
assay-endpoint: solubility at 4 h (µM)
The answer is to be given in µM; state only the numeric part.

Query: So what's the measured solubility at 4 h for this one? CC[C@H]1C[C@H](C)[C@@]2(NC1=O)O[C@@H](C[C@H](O)[C@@H](C)CC/C=C/C=C(\C)[C@@H]1C/C=C/C=C/[C@H](O)[C@H](C)[C@@H](O)[C@@H](CCC(C)=O)C(=O)N[C@@H](C(C)C)C(=O)N[C@@H](Cc3cccc(O)c3)C(=O)N3CCCC(N3)C(=O)O1)[C@H](C)[C@H](O)[C@@H]2C (some centres not stated)
Response: 45

----------
protocol-text: in vitro
assay-conditions: mouse, liver microsomes
Description: Half life in mouse liver microsomes at 1 uM by LC-MS/MS analysis
half-life at 1 µM reference
Give the number; min is assumed, so skip it.

Field: example entries. Status: answers known.
- molecule: "CC(=O)CC[C@H]1C(=O)N[C@@H](C(C)C)C(=O)N[C@@H](Cc2cccc(O)c2)C(=O)N2CCCC(N2)C(=O)O[C@H](/C(C)=C/C=C/C(=O)N(C)C2CCCCC2)C/C=C/C=C/[C@H](O)[C@H](C)[C@H]1O (some centres undefined)"
  half-life at 1 µM / min: 1.9
- molecule: "CC(=O)CC[C@H]1C(=O)N[C@@H](C(C)C)C(=O)N[C@@H](Cc2cccc(O)c2)C(=O)N2CCCC(N2)C(=O)O[C@H](/C(C)=C/C=C/C(=O)Nc2ccc(-c3ccccc3)cc2)C/C=C/C=C/[C@H](O)[C@H](C)[C@H]1O (stereo in doubt)"
  half-life at 1 µM / min: 1.3
- molecule: "CC(=O)CC[C@H]1C(=O)N[C@@H](C(C)C)C(=O)N[C@@H](Cc2cccc(O)c2)C(=O)N2CCCC(N2)C(=O)O[C@H](/C(C)=C/C=C/C(=O)NC2CCCCC2)C/C=C/C=C/[C@H](O)[C@H](C)[C@H]1O (stereo in doubt)"
  half-life at 1 µM / min: 2.7

Query: Reported half-life at 1 µM, molecule CC(=O)CC[C@H]1C(=O)N[C@@H](C(C)C)C(=O)N[C@@H](Cc2cccc(O)c2)C(=O)N2CCCC(N2)C(=O)O[C@H](/C(C)=C/C=C/C(=O)N(C)C)C/C=C/C=C/[C@H](O)[C@H](C)[C@H]1O (some centres undefined) : ____
Response: 24.7

----------
// reported solubility at 4 h per item
protocol-text: Solubility of the compound in phosphate buffered saline at pH 7.4 after 4 hrs by LC-MS/MS analysis

Query: Endpoint output: solubility at 4 h of CC(=O)CC[C@H]1C(=O)N[C@@H](C(C)C)C(=O)N[C@@H](Cc2cccc(O)c2)C(=O)N2CCCC(N2)C(=O)O[C@H](/C(C)=C/C=C/C(=O)Nc2ccc(-c3ccccc3)cc2)C/C=C/C=C/[C@H](O)[C@H](C)[C@H]1O (stereo in doubt) . Value?
Response: 2 µM

Query: Returns the measured solubility at 4 h for the input compound. Input: CON(C)C(=O)/C=C/C=C(\C)[C@@H]1C/C=C/C=C/[C@H](O)[C@H](C)[C@@H](O)[C@@H](CCC(C)=O)C(=O)N[C@@H](C(C)C)C(=O)N[C@@H](Cc2cccc(O)c2)C(=O)N2CCCC(N2)C(=O)O1 (stereo partly specified)
Response: > 100 µM

Query: Return reported solubility at 4 h; argument: CC(=O)CC[C@H]1C(=O)N[C@@H](C(C)C)C(=O)N[C@@H](Cc2cccc(O)c2)C(=O)N2CCCC(N2)C(=O)O[C@H](/C(C)=C/C=C/C(=O)N(C)c2ccccn2)C/C=C/C=C/[C@H](O)[C@H](C)[C@H]1O (stereo partly specified)
Response: 17 µM

Query: Item under review: CCN(CC)C(=O)/C=C/C=C(\C)[C@@H]1C/C=C/C=C/[C@H](O)[C@H](C)[C@@H](O)[C@@H](CCC(C)=O)C(=O)N[C@@H](C(C)C)C(=O)N[C@@H](Cc2cccc(O)c2)C(=O)N2CCCC(N2)C(=O)O1 (stereo partly specified) . Reported solubility at 4 h?
Response: > 100 µM

Query: Requested read-out: solubility at 4 h. Entry: CC(=O)CC[C@H]1C(=O)N[C@@H](C(C)C)C(=O)N[C@@H](Cc2cccc(O)c2)C(=O)N2CCCC(N2)C(=O)O[C@H](/C(C)=C/C=C/C(=O)N2CCOCC2)C/C=C/C=C/[C@H](O)[C@H](C)[C@H]1O (stereo partly specified)
Response: > 100 µM

----------
protocol-text: in vitro
assay-conditions: mouse, liver microsomes
assay-endpoint: half-life at 1 µM
Could you kindly put the unit after your number?

- compound: "CC(=O)CC[C@H]1C(=O)N[C@@H](C(C)C)C(=O)N[C@@H](Cc2cccc(O)c2)C(=O)N2CCCC(N2)C(=O)O[C@H](/C(C)=C/C=C/C(=O)N(CC(C)C)CC(C)C)C/C=C/C=C/[C@H](O)[C@H](C)[C@H]1O (some centres undefined)"
  half-life at 1 µM: "2.5 min"
- compound: "CC(=O)CC[C@H]1C(=O)N[C@@H](C(C)C)C(=O)N[C@@H](Cc2cccc(O)c2)C(=O)N2CCCC(N2)C(=O)O[C@H](/C(C)=C/C=C/C(=O)Nc2ccccn2)C/C=C/C=C/[C@H](O)[C@H](C)[C@H]1O (stereo in doubt)"
  half-life at 1 µM: "8.8 min"
- compound: "CCN(CC)C(=O)/C=C/C=C(\\C)[C@@H]1C/C=C/C=C/[C@H](O)[C@H](C)[C@@H](O)[C@@H](CCC(C)=O)C(=O)N[C@@H](C(C)C)C(=O)N[C@@H](Cc2cccc(O)c2)C(=O)N2CCCC(N2)C(=O)O1 (some centres undefined)"
  half-life at 1 µM: "8.4 min"

Next compound, please.
Query: Sample CNC(=O)/C=C/C=C(\C)[C@@H]1C/C=C/C=C/[C@H](O)[C@H](C)[C@@H](O)[C@@H](CCC(C)=O)C(=O)N[C@@H](C(C)C)C(=O)N[C@@H](Cc2cccc(O)c2)C(=O)N2CCCC(N2)C(=O)O1 (stereo in doubt) — what was its half-life at 1 µM?
Response: 22.5 min

----------
Collected half-life at 1 µM values appear next to each entry.
protocol-text: in vitro
assay-conditions: mouse, liver microsomes
The reply must contain the numeric value and, after it, the unit.

- molecule: "CC(=O)CC[C@H]1C(=O)N[C@@H](C(C)C)C(=O)N[C@@H](Cc2cccc(O)c2)C(=O)N2CCCC(N2)C(=O)O[C@H](/C(C)=C/C=C/C(=O)NC(C)C)C/C=C/C=C/[C@H](O)[C@H](C)[C@H]1O (stereo in doubt)"
  half-life at 1 µM: "6.4 min"
- molecule: "CC(=O)CC[C@H]1C(=O)N[C@@H](C(C)C)C(=O)N[C@@H](Cc2cccc(O)c2)C(=O)N2CCCC(N2)C(=O)O[C@H](/C(C)=C/C=C/C(=O)Nc2cccnc2)C/C=C/C=C/[C@H](O)[C@H](C)[C@H]1O (stereo in doubt)"
  half-life at 1 µM: "3.3 min"

The record that follows has no half-life at 1 µM shown yet.
Query: Requested field: half-life at 1 µM. Item: CC(=O)CC[C@H]1C(=O)N[C@@H](C(C)C)C(=O)N[C@@H](Cc2cccc(O)c2)C(=O)N2CCCC(N2)C(=O)O[C@H](/C(C)=C/C=C/C(=O)Nc2ccncc2)C/C=C/C=C/[C@H](O)[C@H](C)[C@H]1O (stereo partly drawn)
Response: 15.2 min

----------
Test system: Hepatitis C virus
protocol-text: Antiviral activity against Hepatitis C virus genotype 1b I389luc-ubi-neo/NS3-3'/5.1 subgenomic replicon infected in human Huh5-2 cells after 4 days by luciferase assay
Format: functional, cell-based, Hepacivirus hominis
assay-conditions: Huh-5-2, 96 h
assay-endpoint: pEC50
pEC50 (log units): -log10 of the concentration in mol/L.

// known answers, use as guide
- compound: "CC(=O)CC[C@H]1C(=O)N[C@@H](C(C)C)C(=O)N[C@@H](Cc2cccc(O)c2)C(=O)N2CCCC(N2)C(=O)O[C@H](/C(C)=C/C=C/C(=O)Nc2ccccn2)C/C=C/C=C/[C@H](O)[C@H](C)[C@H]1O (stereo in doubt)"
  assay-endpoint: "pEC50"
  experimental-result: 6.78
- compound: "C/C=C/C[C@@H](C)[C@@H](O)[C@H]1C(=O)N[C@@H](CC)C(=O)N(C)CC(=O)N(C)[C@@H](CC(C)C)C(=O)N[C@@H](C(C)C)C(=O)N(C)[C@@H](CC(C)C)C(=O)N[C@@H](C)C(=O)N[C@H](C)C(=O)N(C)[C@@H](CC(C)C)C(=O)N(C)[C@@H](CC(C)C)C(=O)N(C)[C@@H](C(C)C)C(=O)N1C"
  assay-endpoint: "pEC50"
  experimental-result: 6.51
- compound: "CC(=O)CC[C@H]1C(=O)N[C@@H](C(C)C)C(=O)N[C@@H](Cc2cccc(O)c2)C(=O)N2CCCC(N2)C(=O)O[C@H](/C(C)=C/C=C/C(=O)NC(C)C)C/C=C/C=C/[C@H](O)[C@H](C)[C@H]1O (stereo in doubt)"
  assay-endpoint: "pEC50"
  experimental-result: 6.25

From here, focus on the item given below.
Query: Sample CC(=O)CC[C@H]1C(=O)N[C@@H](C(C)C)C(=O)N[C@@H](Cc2cccc(O)c2)C(=O)N2CCCC(N2)C(=O)O[C@H](/C(C)=C/C=C/C(=O)NC2CCCCC2)C/C=C/C=C/[C@H](O)[C@H](C)[C@H]1O (stereo in doubt) — what was its pEC50?
Response: 6.47
